# ASSAYED SYSTEM: human PPARγ1 (Homo sapiens)
# Construct: expressed in transfected cells; host or cells: CHO-K1 cells stably transfected with pVgRXR2-hPPARγ and reporter plasmid pGL3-4ERPP-TK neo
# Sequence (P37231 1-477 isoform P37231-2): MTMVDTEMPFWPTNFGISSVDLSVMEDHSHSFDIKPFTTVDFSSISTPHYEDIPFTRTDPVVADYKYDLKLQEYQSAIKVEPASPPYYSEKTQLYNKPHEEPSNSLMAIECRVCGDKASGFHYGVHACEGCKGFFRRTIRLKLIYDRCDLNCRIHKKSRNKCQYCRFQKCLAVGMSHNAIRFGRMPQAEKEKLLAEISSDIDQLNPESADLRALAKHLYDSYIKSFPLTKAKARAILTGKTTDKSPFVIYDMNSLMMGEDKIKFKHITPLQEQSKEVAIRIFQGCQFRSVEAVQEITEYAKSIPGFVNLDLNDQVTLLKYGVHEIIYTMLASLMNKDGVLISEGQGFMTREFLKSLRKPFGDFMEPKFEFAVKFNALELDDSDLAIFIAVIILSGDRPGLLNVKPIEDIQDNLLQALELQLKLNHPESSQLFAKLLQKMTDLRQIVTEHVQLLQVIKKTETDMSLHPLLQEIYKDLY
# Sequence (P19793 1-462 partner): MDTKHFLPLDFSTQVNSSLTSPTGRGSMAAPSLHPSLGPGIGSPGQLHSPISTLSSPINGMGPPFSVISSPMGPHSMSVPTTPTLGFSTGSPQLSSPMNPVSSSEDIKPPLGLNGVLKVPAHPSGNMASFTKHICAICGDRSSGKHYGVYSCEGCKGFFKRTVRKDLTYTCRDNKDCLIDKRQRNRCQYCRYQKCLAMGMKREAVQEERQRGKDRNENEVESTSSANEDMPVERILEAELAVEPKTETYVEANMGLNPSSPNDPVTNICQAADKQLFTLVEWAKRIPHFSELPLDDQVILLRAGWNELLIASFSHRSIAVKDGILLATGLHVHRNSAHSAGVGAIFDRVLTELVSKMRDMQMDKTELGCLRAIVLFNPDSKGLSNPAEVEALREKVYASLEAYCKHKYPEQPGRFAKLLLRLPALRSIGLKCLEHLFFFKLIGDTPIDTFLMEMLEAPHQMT
# TEST PROTOCOL: Human PPARγ1 antagonist assay (luciferase reporter in PPARγ:RXRα:4ERPP/CHO-K1 cells)
# Assay type: cell-based
# TEST PARAMETERS: test compound 10^−6 M, 10 nM compound A as stimulant, luciferase activity, 24 hrs, read-out: Inhibitory rate (%)
REPORTED ENDPOINT: inhibition at 1 µM (%)

>>> endpoint_result("COc1cc(COc2nn(-c3ccccc3)cc2/C=C/C#N)ccc1OCc1nc(-c2ccccc2)oc1C")
69
>>> endpoint_result("COc1cc(COc2nn(-c3ccccc3)cc2C#N)ccc1OCc1nc(-c2ccco2)oc1C")
51
>>> endpoint_result("COc1cc(COc2nn(-c3ccccc3)cc2/C=C/c2coc(C(C)C)n2)ccc1OCc1nc(-c2ccc(CC(=O)O)cc2)oc1C")
111
>>> endpoint_result("COc1cc(COc2nn(-c3ccccc3)cc2C=O)ccc1OCc1nc(-c2ccco2)oc1C")
63
>>> endpoint_result("CCc1nc(/C=C/c2cn(-c3ccccc3)nc2OCc2ccc(OCc3nc(-c4cccc(-c5nnn[nH]5)c4)oc3C)c(OC)c2)cs1")
112
>>> endpoint_result("COc1cc(COc2nn(-c3ccccc3)cc2/C=C/c2csc(C(C)C)n2)ccc1OCc1nc(-c2ccc(CC(=O)O)cc2)oc1C")
110
>>> endpoint_result("CCc1nc(/C=C/c2cn(-c3ccccc3)nc2OCc2ccc(OCc3nc(-c4ccc(CC(=O)O)cc4)oc3C)c(OC)c2)cs1")
110
>>> endpoint_result("CCOC(=O)c1cn(-c2ccccc2)nc1OCc1ccc(OCc2nc(-c3ccco3)oc2C)c(OC)c1")
62
>>> endpoint_result("CCc1nc(/C=C/c2cn(-c3ccccc3)nc2OCc2ccc(OCc3nc(-c4ccc(CC(=O)O)cc4)oc3C)c(OC)c2)co1")
108
>>> endpoint_result("CCOP(=O)(/C=C/c1cn(-c2ccccc2)nc1OCc1ccc(OCc2nc(-c3ccc(OC)c(C(=O)O)c3)oc2C)c(OC)c1)OCC")
111
>>> endpoint_result("CCOP(=O)(/C=C/c1cn(-c2ccccc2)nc1OCc1ccc(OCc2nc(-c3cccc(C(N)=O)c3)oc2C)c(OC)c1)OCC")
116
>>> endpoint_result("COc1cc(COc2nn(-c3ccccc3)cc2/C=C/c2csc(C)n2)ccc1OCc1nc(-c2ccco2)oc1C [Example 150 (E form)]")
82
>>> endpoint_result("CCOP(=O)(/C=C/c1cn(-c2ccccc2)nc1OCc1ccc(OCc2nc(-c3cccc(C(=O)O)c3)oc2C)c(OC)c1)OCC")
111
>>> endpoint_result("CCOP(=O)(/C=C/c1cn(-c2ccccc2)nc1OCc1ccc(OCc2nc(-c3ccc(CC(=O)O)cc3)oc2C)c(OC)c1)OCC")
113

###

Listed here are molecules together with their documented melting point.
REPORTED ENDPOINT: melting point

>>> endpoint_result("CCOC(=O)Cc1ccc(-c2nc(COc3ccc(COc4nn(-c5ccccc5)cc4/C=C/c4cncn4CC)cc3OC)c(C)o2)cc1 [Example 340]")
"134 to 135 °C"
>>> endpoint_result("COc1cc(COc2nc(-c3ccccc3)ncc2C=O)ccc1OCc1nc(-c2ccco2)oc1C [Example 280]")
"143 to 144 °C"
>>> endpoint_result("COc1cc(COc2nn(-c3ccccc3)cc2CCc2cscn2)ccc1OCc1nc(-c2ccco2)oc1C [Example 119]")
"127 to 128 °C"
>>> endpoint_result("CCOP(=O)(/C=C/c1cn(-c2ccccc2)nc1OCc1ccc(OCc2nc(-c3ccc(C)c(C(=O)OC)c3)oc2C)c(OC)c1)OCC")
"121 to 122 °C"
>>> endpoint_result("COc1cc(COc2nn(-c3ccccc3)cc2Cn2cncn2)ccc1OCc1nc(-c2ccco2)oc1C [Example 122]")
"149 to 150 °C"
>>> endpoint_result("Cc1oc(-c2ccccc2)nc1COc1ccc(OCc2oc(-c3ccccc3)nc2CO)cc1 [Example 93]")
"143 to 144 °C"
>>> endpoint_result("CCOC(=O)c1ccc(-c2nc(COc3ccc(COc4nn(-c5ccccc5)cc4/C=C\\c4csc(CC)n4)cc3OC)c(C)o2)s1 [Example 330 (Z form)]")
"118 to 119 °C"
>>> endpoint_result("COCOc1cc(COc2nn(Cc3ccccc3)cc2C=O)ccc1OCc1nc(-c2ccco2)oc1C [Example 45]")
"141 to 142 °C"
>>> endpoint_result("CCOC(=O)c1csc(/C=C/c2cn(-c3ccccc3)nc2OCc2ccc(OCc3nc(-c4ccco4)oc3C)c(OC)c2)n1 [Example 186]")
"156 to 157 °C"
>>> endpoint_result("CCOC(=O)c1cn(Cc2ccccc2)nc1OCc1ccc(OCc2nc(-c3ccco3)oc2C)c(-c2ccccc2)c1 [Example 56]")
"134 to 135 °C"
>>> endpoint_result("CCOP(=O)(/C=C\\c1cnc(-c2ccccc2)nc1OCc1ccc(OCc2nc(-c3ccco3)oc2C)c(OC)c1)OCC")
"154 to 155 °C"
>>> endpoint_result("CCOC(=O)Cc1ccc(-c2nc(COc3ccc(COc4nn(-c5ccccc5)cc4/C=C/c4csc(C(C)C)n4)cc3OC)c(C)o2)cc1 [Example 360]")
"89 to 90 °C"
>>> endpoint_result("COc1cc(COc2nc(-c3ccccc3)ncc2C(=O)O)ccc1OCc1nc(-c2ccco2)oc1C [Example 305]")
"163 to 164 °C"
>>> endpoint_result("Cc1oc(-c2ccco2)nc1COc1ccc(COc2nn(Cc3ccccc3)cc2C=O)cc1Cl [Example 37]")
"158 to 159 °C"
>>> endpoint_result("COc1cc(COc2nn(-c3ccccc3)cc2/C=C/C(=O)O)ccc1OCc1nc(-c2ccco2)oc1C [Example 79]")
"204 to 205 °C"
>>> endpoint_result("COC(=O)c1cccc(-c2nc(COc3ccc(CON4CC(C=O)=CN4c4ccccc4)cc3OC)c(C)o2)c1 [Example 208]")
"164 to 165 °C"
>>> endpoint_result("COCc1cn(-c2ccccc2)nc1OCc1ccc(OCc2nc(-c3ccco3)oc2C)c(OC)c1 [Example 101]")
"121 to 122 °C"
>>> endpoint_result("CCc1nc(/C=C/c2cn(-c3ccccc3)nc2OCc2ccc(OCc3nc(-c4cccc(NS(C)(=O)=O)c4)oc3C)c(OC)c2)cs1 [Example 388]")
"113 to 115 °C"
>>> endpoint_result("CCc1nc(/C=C\\c2cn(-c3ccccc3)nc2OCc2ccc(OCc3nc(-c4ccco4)oc3C)c(OC)c2)cs1 [Example 152 (Z form)]")
"132 to 133 °C"
>>> endpoint_result("CCOP(=O)(/C=C\\c1cn(-c2ccccc2)nc1OCc1ccc(OCc2nc(-c3cccc(C(=O)OC)c3)oc2C)c(OC)c1)OCC")
"112 to 113 °C"
>>> endpoint_result("COc1cc(COc2nn(-c3ccccc3)cc2/C=C/c2ccccn2)ccc1OCc1nc(-c2ccco2)oc1C [Example 113]")
"135 to 136 °C"
>>> endpoint_result("CCOC(=O)c1cnc(-c2ccccc2)nc1OCc1ccc(OCc2nc(-c3ccco3)oc2C)c(OC)c1 [Example 263]")
"142 to 143 °C"
>>> endpoint_result("COc1cc(COc2nn(-c3ccccc3)cc2C=O)ccc1OCc1nc(N2CCCCC2)sc1C [Example 198]")
"180 to 181 °C"
>>> endpoint_result("CCOP(=O)(/C=C/c1cn(-c2ccccc2)nc1OCc1ccc(OCc2nc(-c3cccc(C(=O)OC)c3)oc2C)c(OC)c1)OCC [Example 211]")
"141 to 142 °C"
>>> endpoint_result("CCOC(=O)c1ccc(-c2nc(COc3ccc(COc4nn(-c5ccccc5)cc4/C=C/P(=O)(OCC)OCC)cc3OC)c(C)o2)s1")
"114 to 115 °C"
>>> endpoint_result("Cc1oc(-c2ccccc2)nc1COc1ccc2c(-c3ccccc3)c(COc3nn(-c4ccccc4)cc3C(=O)O)oc2c1 [Example 65]")
"200 to 201 °C"
>>> endpoint_result("CCOc1cc(COc2nn(-c3ccccc3)cc2/C=C/P(=O)(OCC)OCC)ccc1OCc1nc(-c2ccco2)oc1C")
"117 to 118 °C"
>>> endpoint_result("COc1cc(COc2cc(/C=C/C(=O)O)n(-c3ccccc3)n2)ccc1OCc1nc(-c2ccccc2)oc1C [Example 300]")
"194 to 195 °C"
>>> endpoint_result("CCOC(=O)c1cn(Cc2ccccc2)nc1OCc1ccc(OCc2nc(-c3ccco3)oc2C)c(OCOC)c1 [Example 39]")
"120 to 121 °C"
